Values were extracted from patent US6737383B1.

- Test system: crabgrass
- methodDescription: Test B pre/postemergence crabgrass
- Assay type: in vivo, Digitaria sanguinalis
- conditionSummary: Rate 500 g/ha, Postemergence; scale 0 to 10, 0 no effect, 10 complete control
Reported Crabgrass plant response rating by item:
Format: numeric value only, no unit, no commentary.

Sample records with Crabgrass plant response rating:
Cc1cccc(C(C)C)c1-n1c(=O)on(C(=O)N(c2ccc(F)cc2)C(C)C)c1=O: 0
CCCCc1ccc(N(C(=O)n2oc(=O)n(-c3ccccc3C)c2=O)C(C)C)cc1: 0
C=CCn1c(=O)on(C(=O)N(c2ccc(F)cc2)C2CCCCCC2)c1=O: 0
Cc1cccc(C(C)C)c1-n1c(=O)on(C(=O)N(c2ccc(Cl)cc2)C(C)C)c1=O: 0

The reported Crabgrass plant response rating of the compound `CC(C)=CCCC(C)=CCn1c(=O)on(C(=O)N(c2ccc(F)cc2)C(C)C)c1=O` was 0

The reported Crabgrass plant response rating of the compound `CC(C)N(C(=O)n1oc(=O)n(-c2cccnc2)c1=O)c1ccccc1` was 0

The reported Crabgrass plant response rating of the compound `Cc1ccccc1-n1c(=O)on(C(=O)N(c2ccc(F)c(F)c2)C(C)C)c1=O` was 8

The reported Crabgrass plant response rating of the compound `COc1ccccc1Cn1c(=O)on(C(=O)N(c2ccccc2)C(C)C)c1=O` was 8

* * *

- Tested on: pigweed
- methodDescription: Test B pre/postemergence pigweed
- Format: in vivo, Amaranthus retroflexus
- conditionSummary: Postemergence, Rate 125 g/ha; scale of 0 to 10 where 0 is no effect and 10 is complete control
parameter: Redroot pigweed plant response rating
Format: numeric value only, no unit, no commentary.

Sample records with Redroot pigweed plant response rating:
CCCn1c(=O)on(C(=O)N(c2ccccc2)C(C)C)c1=O [Compound 92]: 3
CC(C)N(C(=O)n1oc(=O)n(CCF)c1=O)c1ccc(F)cc1F [Compound 670]: 7
CC(C)N(C(=O)n1oc(=O)n(C)c1=O)c1ccc(F)cc1 [Compound 138]: 5
CC1CCCCC1n1c(=O)on(C(=O)N(c2ccccc2)C(C)C)c1=O (stereo not drawn) [Compound 162]: 0
Cc1nsc(C)c1-n1c(=O)on(C(=O)N(c2ccc(Cl)cc2)C(C)C)c1=O [Compound 159]: 0

Turning now to a further compound:
The reported Redroot pigweed plant response rating of the compound C#CC(CC)n1c(=O)on(C(=O)N(c2ccc(F)cc2)C(C)C)c1=O (stereo not drawn) [Compound 753] was 5

* * *

Reported Blackgrass plant response rating by item:
- Test system: blackgrass
- methodDescription: Test B pre/postemergence blackgrass
- Format: in vivo, Alopecurus myosuroides
- conditionSummary: Postemergence, Rate 62 g/ha; scale of 0 to 10, 0 is no effect, 10 is complete control

Sample records with Blackgrass plant response rating:
CC(C)N(C(=O)n1oc(=O)n(CC(=O)C(F)(F)F)c1=O)c1ccc(F)cc1F: 0
CC(C)N(C(=O)n1oc(=O)n(CC(=O)N(C)C)c1=O)c1ccc(F)cc1: 0
CC(C)N(C(=O)n1oc(=O)n(CCC(F)(F)F)c1=O)c1ccccc1: 5
CC(=O)C(C)n1c(=O)on(C(=O)N(c2ccc(F)cc2F)C(C)C)c1=O (centres unmarked): 0

The reported Blackgrass plant response rating of the compound `CC(C)N(C(=O)n1oc(=O)n(CCC2OCCO2)c1=O)c1ccccc1` was 2

* * *

Reported Redroot pigweed plant response rating by item:
- Tested on: pigweed
- methodDescription: Test B pre/postemergence pigweed
- Type: in vivo, Amaranthus retroflexus
- conditionSummary: Preemergence, Rate 250 g/ha; scale 0 to 10, 0 is no effect, 10 is complete control
Format: numeric value only, no unit, no commentary.

Sample records with Redroot pigweed plant response rating:
CC1CCCCC1n1c(=O)on(C(=O)N(c2ccccc2)C(C)C)c1=O (stereo not drawn) [Compound 162]: 0
C=CCn1c(=O)on(C(=O)N(c2ccc(F)cc2)C2CC2)c1=O [Compound 154]: 8

Turning now to a further molecule:
The reported Redroot pigweed plant response rating of the molecule CC(C)N(C(=O)n1oc(=O)n(C(C)C(=O)N(C)C)c1=O)c1ccc(F)cc1F (stereo not drawn) [Compound 481] was 3

* * *

Reported Blackgrass plant response rating (0 to 10 scale) by item:
- System: blackgrass
- methodDescription: Test B pre/postemergence blackgrass
- Format: in vivo, Alopecurus myosuroides
- conditionSummary: Preemergence, Rate 250 g/ha
Format: numeric value only, no unit, no commentary.

CC(C)N(C(=O)n1oc(=O)n(CCC2OCCO2)c1=O)c1ccccc1 [Compound 560]: 9
CCC(C)n1c(=O)on(C(=O)N(c2ccccc2)C(C)C)c1=O (centres unmarked) [Compound 612]: 10
CC(C)N(C(=O)n1oc(=O)n(CC(=O)N(C)C)c1=O)c1ccc(F)cc1 [Compound 586]: 9

Tested on blackgrass, the item Cc1noc(C)c1Cn1c(=O)on(C(=O)N(c2ccccc2)C(C)C)c1=O [Compound 569] showed Blackgrass plant response rating (0 to 10 scale) equal to 9

Tested on blackgrass, the item CC(C)N(C(=O)n1oc(=O)n(CC(=O)C(F)(F)F)c1=O)c1ccc(F)cc1F [Compound 598] showed Blackgrass plant response rating (0 to 10 scale) equal to 0

* * *

Reported Morningglory plant response rating by item:
- Test system: morningglory
- methodDescription: Test B pre/postemergence morningglory
- Format: in vivo, Ipomoea hederacea
- conditionSummary: Preemergence, Rate 500 g/ha; scale 0 to 10 (0 no effect, 10 complete control)
Format: numeric value only, no unit, no commentary.

Sample records with Morningglory plant response rating:
CC(C)N(C(=O)n1oc(=O)n(N(C)C)c1=O)c1ccc(F)cc1 [Compound 170]: 10
COc1ccccc1Cn1c(=O)on(C(=O)N(c2ccccc2)C(C)C)c1=O [Compound 104]: 0

The reported Morningglory plant response rating of the molecule CC(C)N(C(=O)n1oc(=O)n([C@@H](C)c2ccccc2)c1=O)c1ccc(Cl)cc1 [Compound 174] was 0

The reported Morningglory plant response rating of the molecule C=CCn1c(=O)on(C(=O)N(c2ccc(F)cc2)C2CC2)c1=O [Compound 154] was 0

* * *

- Test system: purple nutsedge
- methodDescription: Test B pre/postemergence purple nutsedge
- Assay type: in vivo, Cyperus rotundus
- conditionSummary: Rate 125 g/ha, Postemergence; scale of 0 to 10 where 0 is no effect and 10 is complete control
parameter: Nutsedge plant response rating
Format: numeric value only, no unit, no commentary.

Sample records with Nutsedge plant response rating:
CC(C)N(C(=O)n1oc(=O)n(Cc2nnsc2Cl)c1=O)c1ccccc1: 0
Cc1ccccc1-n1c(=O)on(C(=O)N(c2ccc3c(c2)CCC3)C(C)C)c1=O: 0
Cc1cccc(C)c1-n1c(=O)on(C(=O)N(C(C)C)C2C=CCCC2)c1=O (stereo not drawn): 0

The reported Nutsedge plant response rating of the compound `CC(C)N(C(=O)n1oc(=O)n(C[Si](C)(C)C)c1=O)c1ccc(F)cc1` was 0

The reported Nutsedge plant response rating of the compound `CC(C)N(C(=O)n1oc(=O)n(-c2ccsc2)c1=O)c1ccc(F)cc1` was 0

The reported Nutsedge plant response rating of the compound `COCn1c(=O)on(C(=O)N(c2ccc(F)cc2)C(C)C)c1=O` was 3

* * *

Reported Plant response rating, Bedstraw by item:
- Tested on: bedstraw
- methodDescription: Test B pre/postemergence bedstraw
- Format: in vivo, Galium aparine
- conditionSummary: Preemergence, Rate 500 g/ha; scale of 0 to 10 where 0 is no effect and 10 is complete control
Format: numeric value only, no unit, no commentary.

CC(C)N(C(=O)n1oc(=O)n(-c2cccnc2)c1=O)c1ccccc1: 0
CC(C)N(C(=O)n1oc(=O)n(CCF)c1=O)c1ccc(F)cc1F: 9
CC(C)N(C(=O)n1oc(=O)n(C2CCCC2)c1=O)c1ccccc1: 9
CC(=O)OCCCCn1c(=O)on(C(=O)N(c2ccc(F)cc2)C(C)C)c1=O: 10
CCc1ccc(N(C(=O)n2oc(=O)n(-c3ccccc3C)c2=O)C(C)C)cc1: 0

The reported Plant response rating, Bedstraw of the compound `CC(C)N(C(=O)n1oc(=O)n(CC(C)(C)C)c1=O)c1ccc(F)cc1` was 2

The reported Plant response rating, Bedstraw of the compound `COC(=O)Cn1c(=O)on(C(=O)N(c2ccc(F)cc2)C(C)C)c1=O` was 0

The reported Plant response rating, Bedstraw of the compound `CC(C)N(C(=O)n1oc(=O)n(C2CC2)c1=O)c1ccc(F)cc1` was 10

* * *

Reported Plant response rating, Corn by item:
- System: corn
- methodDescription: Test B pre/postemergence corn
- Assay type: in vivo, Zea mays
- conditionSummary: Preemergence, Rate 250 g/ha; scale 0 to 10 (0 no effect, 10 complete control)
- Procedure: […] At the same time, these crop and weed species were also treated with postemergence applications of test chemicals formulated in the same manner. […] Treated plants and controls were maintained in a greenhouse for twelve to sixteen days, after which all species were compared to controls and visually evaluated. […]

CC(C)N(C(=O)n1oc(=O)n(CC(Cl)Cl)c1=O)c1ccc(F)cc1F: 4
CCOP(=O)(OCC)C(C)n1c(=O)on(C(=O)N(c2ccc(F)cc2)C(C)C)c1=O (centres unmarked): 0
CCn1ncc(Cn2c(=O)on(C(=O)N(c3ccc(F)cc3)C(C)C)c2=O)c1Cl: 0
COC(=O)C(C)n1c(=O)on(C(=O)N(c2ccc(Cl)cc2)C(C)C)c1=O (centres unmarked): 0

Turning now to a further molecule:
The reported Plant response rating, Corn of the molecule `COP(=O)(CCn1c(=O)on(C(=O)N(c2ccccc2)C(C)C)c1=O)OC` was 0
